The values you see were collected from paper PMC3794980.

Target: DRB1*0901 (Homo sapiens, UniProt P01903+P01911, A100R/A103E/D57H/D86V/F55Y/F60I/F76Y/I96F/K127E/L162R/M171V/P40D/Q125H/Q99R/R33Q/R42F/S133A/S66N/T210M/V115G/W38K/Y107V/Y59G/Y89S)
Assay: biochemical
Assay type: binding
pIC50: −log10 of the molar value.
result_type: pIC50

[[record]]
compound = "CC[C@H](C)[C@H](NC(=O)[C@H](CCC(=O)O)NC(=O)CNC(=O)[C@@H](NC(=O)[C@@H](NC(=O)[C@@H](NC(=O)[C@H](CCC(N)=O)NC(=O)[C@H](Cc1ccccc1)NC(=O)[C@@H](NC(=O)CNC(=O)[C@@H]1CCCN1C(=O)[C@H](CCSC)NC(=O)[C@@H](NC(=O)[C@H](CCC(N)=O)NC(=O)[C@@H](N)Cc1ccccc1)[C@@H](C)O)[C@@H](C)O)[C@@H](C)O)[C@@H](C)O)[C@@H](C)O)C(=O)O [NS3 109-123]"
measured = 5.73

[[record]]
compound = "CC[C@H](C)[C@H](NC(=O)[C@H](C)NC(=O)[C@H](CC(N)=O)NC(=O)[C@H](C)N)C(=O)N[C@@H](Cc1ccccc1)C(=O)N[C@@H](CCCCN)C(=O)N[C@@H](CC(C)C)C(=O)N[C@H](C(=O)N[C@@H](Cc1ccc(O)cc1)C(=O)N[C@@H](CCC(N)=O)C(=O)N[C@@H](CC(N)=O)C(=O)N[C@@H](CCCCN)C(=O)N[C@H](C(=O)N[C@H](C(=O)N[C@@H](CCCCN)C(=O)N[C@H](C(=O)N[C@@H](CCC(N)=O)C(=O)O)C(C)C)C(C)C)C(C)C)[C@@H](C)O [NS5 564-580]"
measured = 7.00


---

Target: DRB1*1101 (Homo sapiens, UniProt P01903+P01911, A100R/A169T/A87E/I96F/K41T/L162R/M171V/P40S/Q125H/Q178H/Q39Y/Q99D/R42S/S66Y/T262R/V115G/W38E)
Sequence (P01903 26-254, other chains not shown): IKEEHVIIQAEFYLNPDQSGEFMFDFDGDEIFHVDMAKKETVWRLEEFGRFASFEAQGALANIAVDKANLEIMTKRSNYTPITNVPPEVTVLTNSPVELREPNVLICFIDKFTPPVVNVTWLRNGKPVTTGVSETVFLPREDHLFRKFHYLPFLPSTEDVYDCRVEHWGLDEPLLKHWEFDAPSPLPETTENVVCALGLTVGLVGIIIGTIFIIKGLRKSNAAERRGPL
Assay: biochemical
pIC50: −log10 of the molar value.
result_type: pIC50

[[record]]
smiles_text = "CC[C@H](C)[C@H](NC(=O)[C@H](CC(N)=O)NC(=O)CNC(=O)[C@@H](NC(=O)CNC(=O)[C@H](CC(N)=O)NC(=O)[C@@H](N)CO)[C@@H](C)O)C(=O)N[C@H](C(=O)N[C@@H](CO)C(=O)N[C@@H](CO)C(=O)N[C@H](C(=O)N[C@@H](CC(N)=O)C(=O)N[C@@H](CCSC)C(=O)N[C@H](C(=O)N[C@@H](CO)C(=O)N[C@@H](CCCNC(=N)N)C(=O)N[C@@H](CC(C)C)C(=O)O)C(C)C)C(C)C)C(C)C"
measured = 7.51

[[record]]
smiles_text = "C[C@@H](O)[C@H](NC(=O)[C@H](CO)NC(=O)[C@H](CO)NC(=O)[C@H](Cc1c[nH]cn1)NC(=O)[C@H](CCC(=O)O)NC(=O)[C@H](CCC(=O)O)NC(=O)[C@@H](N)CCCCN)C(=O)N[C@@H](Cc1c[nH]c2ccccc12)C(=O)N[C@@H](Cc1c[nH]cn1)C(=O)N[C@@H](Cc1ccc(O)cc1)C(=O)N[C@@H](CC(=O)O)C(=O)N[C@@H](CC(=O)O)C(=O)N[C@@H](CCC(=O)O)C(=O)N[C@@H](CC(N)=O)C(=O)N1CCC[C@H]1C(=O)N[C@@H](Cc1ccc(O)cc1)C(=O)N[C@@H](CCCCN)C(=O)O"
measured = 5.85

[[record]]
smiles_text = "CC[C@H](C)[C@H](NC(=O)[C@@H]1CCCN1C(=O)[C@H](CC(C)C)NC(=O)CNC(=O)[C@@H](N)CCCCN)C(=O)N[C@@H](CCCNC(=N)N)C(=O)N[C@@H](Cc1ccc(O)cc1)C(=O)N[C@@H](CCC(N)=O)C(=O)N[C@H](C(=O)N[C@H](C(=O)N[C@@H](C)C(=O)N[C@H](C(=O)N[C@@H](CCCCN)C(=O)N[C@@H](CO)C(=O)N[C@@H](CCC(=O)O)C(=O)O)[C@@H](C)O)[C@@H](C)O)[C@@H](C)O"
measured = 6.09

[[record]]
smiles_text = "CC(C)C[C@H](NC(=O)[C@H](CCCNC(=N)N)NC(=O)[C@H](Cc1c[nH]cn1)NC(=O)[C@H](CC(=O)O)NC(=O)[C@H](CS)NC(=O)[C@H](CC(C)C)NC(=O)[C@H](CCC(N)=O)NC(=O)[C@@H](NC(=O)[C@H](Cc1ccc(O)cc1)NC(=O)[C@@H](NC(=O)[C@H](CCC(=O)O)NC(=O)[C@H](CCCNC(=N)N)NC(=O)[C@H](CC(C)C)NC(=O)[C@H](CCCCN)NC(=O)[C@@H](N)CC(C)C)C(C)C)[C@@H](C)O)C(=O)O"
measured = 5.32

[[record]]
smiles_text = "CSCC[C@H](NC(=O)[C@@H](NC(=O)[C@H](Cc1ccccc1)NC(=O)[C@H](CCCNC(=N)N)NC(=O)[C@H](CC(N)=O)NC(=O)[C@H](CC(C)C)NC(=O)[C@H](CC(C)C)NC(=O)[C@H](CC(C)C)NC(=O)[C@H](CCCNC(=N)N)NC(=O)[C@H](CO)NC(=O)[C@@H](NC(=O)[C@@H](N)CCSC)C(C)C)[C@@H](C)O)C(=O)N[C@H](C(=O)N[C@@H](Cc1c[nH]cn1)C(=O)N[C@@H](CCCNC(=N)N)C(=O)N[C@@H](CCCNC(=N)N)C(=O)O)[C@@H](C)O"
measured = 7.80

[[record]]
smiles_text = "CC[C@H](C)[C@H](NC(=O)[C@H](C)NC(=O)[C@H](CC(N)=O)NC(=O)[C@H](CO)NC(=O)[C@H](C)NC(=O)[C@H](CC(C)C)NC(=O)[C@H](CCCNC(=N)N)NC(=O)[C@H](CC(C)C)NC(=O)[C@H](CC(=O)O)NC(=O)[C@H](CCCNC(=N)N)NC(=O)[C@@H](N)CCCNC(=N)N)C(=O)N[C@@H](CS)C(=O)N[C@@H](CO)C(=O)N[C@@H](C)C(=O)N[C@H](C(=O)N1CCC[C@H]1C(=O)N[C@H](C(=O)O)C(C)C)C(C)C"
measured = 7.10

[[record]]
smiles_text = "CC[C@H](C)[C@H](NC(=O)[C@H](CC(=O)O)NC(=O)[C@@H](N)CC(C)C)C(=O)N[C@@H](CCC(=O)O)C(=O)N[C@@H](CC(C)C)C(=O)N[C@@H](CCC(N)=O)C(=O)N[C@@H](CCCCN)C(=O)N[C@H](C(=O)N[C@@H](CCC(=O)O)C(=O)N[C@@H](C)C(=O)N[C@H](C(=O)N[C@@H](CCC(N)=O)C(=O)N[C@@H](CC(C)C)C(=O)N[C@@H](C)C(=O)N[C@H](C(=O)O)[C@@H](C)O)[C@@H](C)O)[C@@H](C)O"
measured = 5.49

[[record]]
smiles_text = "CSCC[C@H](NC(=O)[C@@H](NC(=O)[C@H](CCC(N)=O)NC(=O)[C@H](Cc1ccccc1)NC(=O)[C@H](CC(N)=O)NC(=O)[C@H](CCCCN)NC(=O)[C@@H]1CCCN1C(=O)[C@@H](N)CC(N)=O)[C@@H](C)O)C(=O)N1CCC[C@H]1C(=O)NCC(=O)N[C@H](C(=O)N[C@@H](Cc1ccccc1)C(=O)N[C@@H](CCC(N)=O)C(=O)N[C@H](C(=O)N[C@H](C(=O)O)[C@@H](C)O)[C@@H](C)O)[C@@H](C)O"
measured = 7.07

[[record]]
smiles_text = "CC[C@H](C)[C@H](NC(=O)[C@H](C)NC(=O)[C@H](CC(N)=O)NC(=O)[C@H](CO)NC(=O)[C@H](C)NC(=O)[C@H](CC(C)C)NC(=O)[C@H](CCCNC(=N)N)NC(=O)[C@H](CC(C)C)NC(=O)[C@H](CC(=O)O)NC(=O)[C@H](CCCNC(=N)N)NC(=O)[C@H](CCCNC(=N)N)NC(=O)[C@H](Cc1c[nH]cn1)NC(=O)[C@H](Cc1ccccc1)NC(=O)[C@H](Cc1ccc(O)cc1)NC(=O)[C@@H](N)CCSC)C(=O)O"
measured = 7.77

[[record]]
smiles_text = "CC[C@H](C)[C@H](NC(=O)[C@H](CCCCN)NC(=O)[C@H](C)NC(=O)[C@H](CCCCN)NC(=O)CNC(=O)[C@H](Cc1c[nH]c2ccccc12)NC(=O)[C@@H](N)[C@@H](C)O)C(=O)N[C@H](C(=O)N[C@H](C(=O)N[C@@H](C)C(=O)N[C@@H](CCC(=O)O)C(=O)N[C@H](C(=O)N[C@@H](CCC(N)=O)C(=O)N[C@@H](CC(N)=O)C(=O)N[C@@H](CO)C(=O)O)[C@@H](C)O)[C@@H](C)O)C(C)C"
measured = 4.74

